// provenance: the kinase profiling compilation of Christmann-Franck et al. (2016)

Examples of compounds with documented residual activity follow.
studySystem: MAPK11 (human)
methodDescription: radiometric filter-binding kinase assay, Kinase HotSpot
testConditions: compound 0.5 µM; ATP 10 µM
The answer is to be given in %; state only the numeric part.

Previously resolved entries follow.
>>> df
                                givensmiles        readouttype  unitname  observed
0  CC(=O)O/N=C1\C(=C2\C(=O)Nc3cc(Br)ccc32)Nc2ccccc21  residual activity         %      83.4
1  O=C1NC(=O)C(c2cn(CCCO)c3ncccc23)=C1c1cnccn1  residual activity         %       105
2             COc1cc2ncc(-c3ccccc3)nc2cc1OC  residual activity         %      95.7

Q) Need residual activity of `O=C(O)/C=C/c1cc(Br)c(Br)c(Br)c1Br` , thanks.
A) 92.7

Q) Need residual activity of `O=C1NC(=O)C(c2c[nH]c3ccccc23)=C1c1c[nH]c2ccccc12` , thanks.
A) 89

Q) Need residual activity of `O=C(CCCc1ccc(-c2ccccc2F)cc1)Nc1ccc(O)cc1` , thanks.
A) 79.7

Q) Need residual activity of `CN(C)C[C@H]1CCn2c(c(C3=C(c4cn(C)c5ccccc45)C(=O)NC3=O)c3ccccc32)C1` , thanks.
A) 109

Q) Need residual activity of `O=C1Nc2ccccc2/C1=C1\Nc2ccccc2\C1=N/O` , thanks.
A) 92.9

Q) Need residual activity of `CC(C)[C@H](CO)Nc1nc(Nc2cc(N)cc(Cl)c2)c2ncn(C(C)C)c2n1` , thanks.
A) 96.3

Q) Need residual activity of `CC(C)c1nn(-c2c(Cl)cccc2Cl)c2nc(Cc3ccc(OCCO)cc3)nc(O)c12` , thanks.
A) 81.8

Q) Need residual activity of `CCN(CC)CCCCN1c2ccccc2Oc2ccc(Cl)cc21` , thanks.
A) 103

###

Examples of compounds with documented residual activity follow.
studySystem: NLK (human)
methodDescription: radiometric filter-binding kinase assay, Kinase HotSpot
testConditions: compound 0.5 µM; ATP 10 µM
The answer is to be given in %; state only the numeric part.

Previously resolved entries follow.
                                   compound        readouttype  unitname  observed
0  COc1ccc(CNC(=O)Nc2ncc([N+](=O)[O-])s2)cc1  residual activity         %       102
1       Cn1cnc2cc3c(Nc4cccc(Br)c4)ncnc3cc21  residual activity         %       100
2  O=C(CCCc1ccc(-c2ccccc2F)cc1)Nc1ccc(O)cc1  residual activity         %       101
3             COc1cc2ncc(-c3ccccc3)nc2cc1OC  residual activity         %      89.3
4                 Cn1sc(=O)n(Cc2ccccc2)c1=O  residual activity         %       105

Q) Need residual activity of `Nc1nccc(-c2c(-c3ccc(F)cc3)ncn2C2CCNCC2)n1` , thanks.
A) 12.1

Q) Need residual activity of O=C1Nc2ccccc2/C1=C1/Nc2ccccc2/C1=N\OCCC(O)CO (configuration not stated) , thanks.
A) 101

Q) Need residual activity of `Oc1ccc(Nc2nc(-c3ccc(Cl)cc3)cs2)cc1` , thanks.
A) 101

Q) Need residual activity of `Cn1nc2c3c(cccc31)C(=O)c1ccccc1-2` , thanks.
A) 100

Q) Need residual activity of `CC(C)[C@H](CO)Nc1nc(Nc2cc(N)cc(Cl)c2)c2ncn(C(C)C)c2n1` , thanks.
A) 93.9

Q) Need residual activity of `O=C1Nc2ccccc2/C1=C1\Nc2ccccc2\C1=N/O` , thanks.
A) 94.6

Q) Need residual activity of `O=C(O)/C=C/c1cc(Br)c(Br)c(Br)c1Br` , thanks.
A) 99.1

Q) Need residual activity of `Cc1nc2cc3nc(-c4cccs4)cnc3cc2n1C` , thanks.
A) 105

Q) Need residual activity of `O=C1NC(=O)/C(=C\c2ccc3nccnc3c2)S1` , thanks.
A) 92.4

Q) Need residual activity of `CCn1cnc2c(Nc3cccc(Cl)c3)nc(N[C@@H]3CCCC[C@@H]3N)nc21` , thanks.
A) 90.8

Q) Need residual activity of `CN(C)C[C@H]1CCn2c(c(C3=C(c4cn(C)c5ccccc45)C(=O)NC3=O)c3ccccc32)C1` , thanks.
A) 101

Q) Need residual activity of `CC(C)c1nn(-c2c(Cl)cccc2Cl)c2nc(Cc3ccc(OCCO)cc3)nc(O)c12` , thanks.
A) 97.6
